Could you please report measured melting temperature for the items listed next?
System: HeLa Kyoto
Assay: melting temperature (median over replicates), in situ; higher = more thermally stable
Conditions: cell cycle stage: mitosis
Answers are plain numbers, in °C.

// solved cases for melting temperature follow
item.sequence	melting temperature [°C]
MSVAGGEIRGDTGGEDTAAPGRFSFSPEPTLEDIRRLHAEFAAERDWEQFHQPRNLLLALVGEVGELAELFQWKTDGEPGPQGWSPRERAALQEELSDVLIYLVALAARCRVDLPLAVLSKMDINRRRYPAHLARSSSRKYTELPHGAISEDQAVGPADIPCDSTGQTST [DCTPP1]	50.5
MGGPRGAGWVAAGLLLGAGACYCIYRLTRGRRRGDRELGIRSSKSAGALEEGTSEGQLCGRSARPQTGGTWESQWSKTSQPEDLTDGSYDDVLNAEQLQKLLYLLESTEDPVIIERALITLGNNAAFSVNQAIIRELGGIPIVANKINHSNQSIKEKALNALNNLSVNVENQIKIKIYISQVCEDVFSGPLNSAVQLAGLTLLTNMTVTNDHQHMLHSYITDLFQVLLTGNGNTKVQVLKLLLNLSENPAMTEGLLRAQVDSSFLSLYDSHVAKEILLRVLTLFQNIKNCLKIEGHLAVQPTFTEGSLFFLLHGEECAQKIRALVDHHDAEVKEKVVTIIPKI [ARMC10]	49.7
MVSWMICRLVVLVFGMLCPAYASYKAVKTKNIREYVRWMMYWIVFALFMAAEIVTDIFISWFPFYYEIKMAFVLWLLSPYTKGASLLYRKFVHPSLSRHEKEIDAYIVQAKERSYETVLSFGKRGLNIAASAAVQAATKSQGALAGRLRSFSMQDLRSISDAPAPAYHDPLYLEDQVSHRRPPIGYRAGGLQDSDTEDECWSDTEAVPRAPARPREKPLIRSQSLRVVKRKPPVREGTSRSLKVRTRKKTVPSDVDS [REEP4]	53.2

I would be grateful if you could provide melting temperature for each of the following entries.
1. MDMLDPGLDPAASATAAAAASHDKGPEAEEGVELQEGGDGPGAEEQTAVAITSVQQAAFGDHNIQYQFRTETNGGQVTYRVVQVTDGQLDGQGDTAGAVSVVSTAAFAGGQQAVTQVGVDGAAQRPGPAAASVPPGPAAPFPLAVIQNPFSNGGSPAAEAVSGEARFAYFPASSVGDTTAVSVQTTDQSLQAGGQFYVMMTPQDVLQTGTQRTIAPRTHPYSPKIDGTRTPRDERRRAQHNEVERRRRDKINNWIVQLSKIIPDCNADNSKTGASKGGILSKACDYIRELRQTNQRMQETFKEAERLQMDNELLRQQIEELKNENALLRAQLQQHNLEMVGEGTRQ [USF2]
2. MAASRWARKAVVLLCASDLLLLLLLLPPPGSCAAEGSPGTPDESTPPPRKKKKDIRDYNDADMARLLEQWEKDDDIEEGDLPEHKRPSAPVDFSKIDPSKPESILKMTKKGKTLMMFVTVSGSPTEKETEEITSLWQGSLFNANYDVQRFIVGSDRAIFMLRDGSYAWEIKDFLVGQDRCADVTLEGQVYPGKGGGSKEKNKTKQDKGKKKKEGDLKSRSSKEENRAGNKREDL [MESDC2]
3. MAEGNHRKKPLKVLESLGKDFLTGVLDNLVEQNVLNWKEEEKKKYYDAKTEDKVRVMADSMQEKQRMAGQMLLQTFFNIDQISPNKKAHPNMEAGPPESGESTDALKLCPHEEFLRLCKERAEEIYPIKERNNRTRLALIICNTEFDHLPPRNGADFDITGMKELLEGLDYSVDVEENLTARDMESALRAFATRPEHKSSDSTFLVLMSHGILEGICGTVHDEKKPDVLLYDTIFQIFNNRNCLSLKDKPKVIIVQACRGANRGELWVRDSPASLEVASSQSSENLEEDAVYKTHVEKDFIAFCSSTPHNVSWRDSTMGSIFITQLITCFQKYSWCCHLEEVFRKVQQSFETPRAKAQMPTIERLSMTRYFYLFPGN [CASP4]
4. MSQAVQTNGTQPLSKTWELSLYELQRTPQEAITDGLEIVVSPRSLHSELMCPICLDMLKNTMTTKECLHRFCADCIITALRSGNKECPTCRKKLVSKRSLRPDPNFDALISKIYPSRDEYEAHQERVLARINKHNNQQALSHSIEEGLKIQAMNRLQRGKKQQIENGSGAEDNGDSSHCSNASTHSNQEAGPSNKRTKTSDDSGLELDNNNAAMAIDPVMDGASEIELVFRPHPTLMEKDDSAQTRYIKTSGNATVDHLSKYLAVRLALEELRSKGESNQMNLDTASEKQYTIYIATASGQFTVLNGSFSLELVSEKYWKVNKPMELYYAPTKEHK [RNF2]
5. MLDSLLALGGLVLLRDSVEWEGRSLLKALVKKSALCGEQVHILGCEVSEEEFREGFDSDINNRLVYHDFFRDPLNWSKTEEAFPGGPLGALRAMCKRTDPVPVTIALDSLSWLLLRLPCTTLCQVLHAVSHQDSCPGDSSSVGKVSVLGLLHEELHGPGPVGALSSLAQTEVTLGGTMGQASAHILCRRPRQRPTDQTQWFSILPDFSLDLQEGPSVESQPYSDPHIPPVDPTTHLTFNLHLSKKEREARDSLILPFQFSSEKQQALLRPRPGQATSHIFYEPDAYDDLDQEDPDDDLDI [ELP5]
6. MASGNARIGKPAPDFKATAVVDGAFKEVKLSDYKGKYVVLFFYPLDFTFVCPTEIIAFSNRAEDFRKLGCEVLGVSVDSQFTHLAWINTPRKEGGLGPLNIPLLADVTRRLSEDYGVLKTDEGIAYRGLFIIDGKGVLRQITVNDLPVGRSVDEALRLVQAFQYTDEHGEVCPAGWKPGSDTIKPNVDDSKEYFSKHN [PRDX2]
7. MESGAYGAAKAGGSFDLRRFLTQPQVVARAVCLVFALIVFSCIYGEGYSNAHESKQMYCVFNRNEDACRYGSAIGVLAFLASAFFLVVDAYFPQISNATDRKYLVIGDLLFSALWTFLWFVGFCFLTNQWAVTNPKDVLVGADSVRAAITFSFFSIFSWGVLASLAYQRYKAGVDDFIQNYVDPTPDPNTAYASYPGASVDNYQQPPFTQNAETTEGYQPPPVY [SYNGR2]

Marked response:
1. 54.6
2. 56.3
3. 50.5
4. 51.7
5. 53.9
6. 55.1
7. 56.3

* * *

Tested on: HeLa Kyoto
Assay: melting temperature (median over replicates), in situ; higher = more thermally stable
Conditions: cell cycle stage: mitosis
readout: melting temperature (°C)
One number for each entry, in °C.

// solved cases for melting temperature follow
item.sequence	target.of.assay	melting temperature, °C
MQWNVPRTVSRLARRTCLEPHNAGLFGHCQNVKGPLLLYNAESKVVLVQGPQKQWLHLSAAQCVAKERRPLDAHPPQPGVLRHKQGKQHVSFRRVFSSSATAQGTPEKKEEPDPLQDKSISLYQRFKKTFRQYGKVLIPVHLITSGVWFGTFYYAALKGVNVVPFLELIGLPDSVVSILKNSQSGNALTAYALFKIATPARYTVTLGGTSVTVKYLRSHGYMSTPPPVKEYLQDRMEETKELITEKMEETKDRLTEKLQETKEKVSFKKKVE [FAM210A]	HeLa Kyoto	54.9
MACAAARSPADQDRFICIYPAYLNNKKTIAEGRRIPISKAVENPTATEIQDVCSAVGLNVFLEKNKMYSREWNRDVQYRGRVRVQLKQEDGSLCLVQFPSRKSVMLYAAEMIPKLKTRTQKTGGADQSLQQGEGSKKGKGKKKK [SRP19]	HeLa Kyoto	50.8
MLSRVVLSAAATAAPSLKNAAFLGPGVLQATRTFHTGQPHLVPVPPLPEYGGKVRYGLIPEEFFQFLYPKTGVTGPYVLGTGLILYALSKEIYVISAETFTALSVLGVMVYGIKKYGPFVADFADKLNEQKLAQLEEAKQASIQHIQNAIDTEKSQQALVQKRHYLFDVQRNNIAMALEVTYRERLYRVYKEVKNRLDYHISVQNMMRRKEQEHMINWVEKHVVQSISTQQEKETIAKCIADLKLLAKKAQAQPVM [ATP5F1]	HeLa Kyoto	53.8

Could you now consider this next sequence?
Exam item: Can you share its melting temperature? I mean this sequence: MQFMLLFSRQGKLRLQKWYVPLSDKEKKKITRELVQTVLARKPKMCSFLEWRDLKIVYKRYASLYFCCAIEDQDNELITLEIIHRYVELLDKYFGSVCELDIIFNFEKAYFILDEFLLGGEVQETSKKNVLKAIEQADLLQEEAETPRSVLEEIGLT [AP1S2]
Marked response: 49.7

* * *

Test system: HeLa Kyoto;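 further: HeLa Kyoto cells synchronized by double thymidine or nocodazole block, proteins quantified by TMT10plex mass spectrometry, three independent biological replicates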
Experiment: melting temperature (median over replicates), in situ; higher = more thermally stable
Conditions: cell cycle stage: mitosis
readout: melting temperature (°C)
Give bare numbers, in °C.

item.sequence	target.of.assay	melting temperature / °C
MSTGGDFGNPLRKFKLVFLGEQSVGKTSLITRFMYDSFDNTYQATIGIDFLSKTMYLEDRTVRLQLWDTAGQERFRSLIPSYIRDSTVAVVVYDITNVNSFQQTTKWIDDVRTERGSDVIIMLVGNKTDLADKRQVSIEEGERKAKELNVMFIETSAKAGYNVKQLFRRVAAALPGMESTQDRSREDMIDIKLEKPQEQPVSEGGCSC [RAB6A]	HeLa Kyoto	57.1
MAAAAVSGALGRAGWRLLQLRCLPVARCRQALVPRAFHASAVGLRSSDEQKQQPPNSFSQQHSETQGAEKPDPESSHSPPRYTDQGGEEEEDYESEEQLQHRILTAALEFVPAHGWTAEAIAEGAQSLGLSSAAASMFGKDGSELILHFVTQCNTRLTRVLEEEQKLVQLGQAEKRKTDQFLRDAVETRLRMLIPYIEHWPRALSILMLPHNIPSSLSLLTSMVDDMWHYAGDQSTDFNWYTRRAMLAAIYNTTELVMMQDSSPDFEDTWRFLENRVNDAMNMGHTAKQVKSTGEALVQGLMGAAVTLKNLTGLNQRR [COQ9]	HeLa Kyoto	51.8
MKSNPAIQAAIDLTAGAAGGTACVLTGQPFDTMKVKMQTFPDLYRGLTDCCLKTYSQVGFRGFYKGTSPALIANIAENSVLFMCYGFCQQVVRKVAGLDKQAKLSDLQNAAAGSFASAFAALVLCPTELVKCRLQTMYEMETSGKIAKSQNTVWSVIKSILRKDGPLGFYHGLSSTLLREVPGYFFFFGGYELSRSFFASGRSKDELGPVPLMLSGGVGGICLWLAVYPVDCIKSRIQVLSMSGKQAGFIRTFINVVKNEGITALYSGLKPTMIRAFPANGALFLAYEYSRKLMMNQLEAY [SLC25A15]	HeLa Kyoto	56.6
MCNTPTYCDLGKAAKDVFNKGYGFGMVKIDLKTKSCSGVEFSTSGHAYTDTGKASGNLETKYKVCNYGLTFTQKWNTDNTLGTEISWENKLAEGLKLTLDTIFVPNTGKKSGKLKASYKRDCFSVGSNVDIDFSGPTIYGWAVLAFEGWLAGYQMSFDTAKSKLSQNNFALGYKAADFQLHTHVNDGTEFGGSIYQKVNEKIETSINLAWTAGSNNTRFGIAAKYMLDCRTSLSAKVNNASLIGLGYTQTLRPGVKLTLSALIDGKNFSAGGHKVGLGFELEA [VDAC3]	HeLa Kyoto	59.9

Could you now consider this next sequence?
Exam item: Can you share its melting temperature? I mean this sequence: MAATRSPTRARERERSGAPAAGSDQVHSWMLATSQALDTVWRMAKGFVMLAVSFLVAAICYFRRLHLYSGHKLKWWIGYLQRKFKRNLSVEAEVDLLSYCAREWKGETPRNKLMRKAYEELFWRHHIKCVRQVRRDNYDALRSVLFQIFSQGISFPSWMKEKDIVKLPEKLLFSQGCNWIQQYSFGPEKYTGSNVFGKLRKYVELLKTQWTEFNGIRDYHKRGSMCNTLFSDAILEYKLYEALKFIMLYQVTEVYEQMKTKKVIPSLFRLLFSRETSSDPLSFMMNHLNSVGDTCGLEQIDMFILGYSLEVKIKVFRLFKFNSRDFEVCYPEEPLRDWPEISLLTENDRHYHIPVF [FAM105A]
Marked response: 52.7
